The measured values listed here are drawn from paper PMC10359466.

- experimental system: HsRPA1 DBD-AB (Homo sapiens, UniProt P27694 181-427)
- Sequence (P27694 181-427): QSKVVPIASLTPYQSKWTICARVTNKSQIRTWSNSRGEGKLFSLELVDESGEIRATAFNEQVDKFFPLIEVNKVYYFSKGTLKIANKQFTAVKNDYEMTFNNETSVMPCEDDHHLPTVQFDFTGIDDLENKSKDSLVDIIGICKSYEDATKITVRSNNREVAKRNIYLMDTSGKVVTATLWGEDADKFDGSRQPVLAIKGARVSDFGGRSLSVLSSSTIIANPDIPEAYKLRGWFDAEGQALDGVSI
- protocol notes: MST; 20 mM Tris pH 7.5, 10 mM NaCl, 10 mM MgCl2, 2 mM DTT, 10% glycerol, 0.1 mg/ml BSA, 15 min, room temperature; EMSA 2 nM probe (gel at 4 C), MST 10 nM probe
- condition notes: protein: recombinant; tags: 6xHis (pET28a); label: 5' Cy5 (MST) or 5' IRDye800 (EMSA); single strand
reported property: Kd (nM)

| binder | units symbol | recorded number |
| --- | --- | --- |
| TTTTTTTTTTTTTTTTTTTTTTTTTTTTTTTT (ssDNA) [dT32] | nM | 48 |
